Molecular target: Glucocorticoid receptor (Homo sapiens) (UniProt P04150)
Sequence (P04150 whole entry, looked up): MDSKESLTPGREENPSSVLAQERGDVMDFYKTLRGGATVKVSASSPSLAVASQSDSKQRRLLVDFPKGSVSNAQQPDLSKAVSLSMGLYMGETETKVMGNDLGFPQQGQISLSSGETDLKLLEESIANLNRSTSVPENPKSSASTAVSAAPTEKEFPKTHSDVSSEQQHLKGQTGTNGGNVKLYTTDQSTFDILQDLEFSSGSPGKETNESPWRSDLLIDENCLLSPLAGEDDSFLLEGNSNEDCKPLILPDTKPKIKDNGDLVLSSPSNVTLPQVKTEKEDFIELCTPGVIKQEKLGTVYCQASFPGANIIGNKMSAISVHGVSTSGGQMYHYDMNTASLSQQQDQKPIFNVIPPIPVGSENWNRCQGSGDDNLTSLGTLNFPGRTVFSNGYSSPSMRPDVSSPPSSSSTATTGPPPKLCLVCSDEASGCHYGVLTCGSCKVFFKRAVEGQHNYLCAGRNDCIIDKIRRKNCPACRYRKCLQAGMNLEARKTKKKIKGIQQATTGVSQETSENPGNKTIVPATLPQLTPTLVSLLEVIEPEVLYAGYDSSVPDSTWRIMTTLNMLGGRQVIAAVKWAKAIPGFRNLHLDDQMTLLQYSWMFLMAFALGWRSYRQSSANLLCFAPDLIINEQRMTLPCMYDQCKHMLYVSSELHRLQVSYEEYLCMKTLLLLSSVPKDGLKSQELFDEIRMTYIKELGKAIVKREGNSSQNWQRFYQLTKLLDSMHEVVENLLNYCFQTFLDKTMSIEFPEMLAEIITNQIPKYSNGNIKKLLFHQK
Experiment: qHTS assay to identify small molecule antagonists of the glucocorticoid receptor (GR) signaling pathway (AID 720692)
Details: GR-bla HeLa, beta-lactamase FRET ratio, dexamethasone-stimulated, 18 h; series mostly up to 58.5 µM
Inconclusive results are not listed. Activity calls are given as the source filed them. The call rests on the fitted dose curve; in most records, active means well fitted inhibition curve with a large enough effect in the signal ratio in the repeat runs (not every such curve was filed as active); inconclusive means weak or mixed curves, or effect the other way; inactive means no such curve, though single readings can be large or run the other way; the % refers to the signal ratio.
Permitted responses: active, inactive

See these solved cases before continuing.
compound	tested system	class name
CN1CCN(C2=Nc3ccccc3Cc3ccccc32)CC1	Glucocorticoid receptor (Homo sapiens) (UniProt P04150)	inactive
C#C[C@]1(OC(C)=O)CC[C@H]2[C@@H]3CCC4=CC(=O)CC[C@@H]4[C@H]3CC[C@@]21C	Glucocorticoid receptor (Homo sapiens) (UniProt P04150)	active
C[C@]12CC[C@@H]3c4ccc(OC(=O)c5ccccc5)cc4CC[C@H]3[C@@H]1CC[C@@H]2O	Glucocorticoid receptor (Homo sapiens) (UniProt P04150)	active
CO[C@H]1C[C@H](O[C@@H]2/C(C)=C/C[C@@H]3C[C@@H](C[C@]4(CC[C@H](C)[C@@H](C5CCCCC5)O4)O3)OC(=O)[C@@H]3C=C(C)/C(=N/O)[C@H]4OC/C(=C\C=C\[C@@H]2C)[C@]43O)O[C@@H](C)[C@@H]1O	Glucocorticoid receptor (Homo sapiens) (UniProt P04150)	inactive
CCCCC(=O)N(Cc1ccc(-c2ccccc2-c2nn[nH]n2)cc1)[C@@H](C(=O)O)C(C)C	Glucocorticoid receptor (Homo sapiens) (UniProt P04150)	inactive

Record lookup: outcome of this test for NCc1ccccc1CC(=O)N[C@@H]1C(=O)N2C(C(=O)O)=C(CSc3nnnn3CC(=O)O)CS[C@H]12 ?
inactive

Hello, I am checking results. What call was entered for O=C(O)c1cccc(/C=C2/C[C@@H]3[C@@H](/C=C/[C@@H](O)C4CCCCC4)[C@H](O)C[C@@H]3O2)c1 ?
inactive

For CC1=C(/C=C/C(C)=C/C=C/C(C)=C/C=C/C=C(C)/C=C/C=C(C)/C=C/C2=C(C)C[C@@H](O)CC2(C)C)C(C)(C)C[C@H](O)C1 , which call appears in the assay record?
active

How was Cc1cccc(C)c1NC(=O)NC1=CCCN1C classified in this test?
inactive

What outcome does the record of this test show for CCCCC/C=C\CCC(=O)N[C@H]1[C@H](Oc2c3cc4cc2Oc2ccc(cc2Cl)[C@@H](O[C@@H]2O[C@H](CO)[C@@H](O)[C@H](O)[C@H]2NC(C)=O)[C@@H]2NC(=O)[C@H](NC(=O)[C@@H]4NC(=O)[C@H]4NC(=O)[C@@H](Cc5ccc(c(Cl)c5)O3)NC(=O)[C@H](N)c3ccc(O)c(c3)Oc3cc(O)cc4c3)c3ccc(O)c(c3)-c3c(O[C@H]4O[C@H](CO)[C@@H](O)[C@H](O)[C@@H]4O)cc(O)cc3[C@@H](C(=O)O)NC2=O)O[C@H](CO)[C@@H](O)[C@@H]1O ?
inactive

Could you kindly confirm the outcome this assay logged for C[N+]1(C)CCN(CC(O)(c2ccccc2)C2CCCCC2)CC1 (stereo not given) ?
inactive

Answer briefly: the call reported for CC(C)(C)NC[C@H](O)COc1ccccc1C1CCCC1 in this assay.
inactive

Fill in: this test's call for OCCN1CCN(CC/C=C2/c3ccccc3Sc3ccc(Cl)cc32)CC1 is ___
inactive

Please let me know the test result on file for C=CCN1CCCC1CNC(=O)c1cc(S(N)(=O)=O)cc(OC)c1OC (stereo not given) .
inactive

Kindly provide the recorded test outcome for the following compound: CN(C)c1ccc(C(=C2C=CC(=[N+](C)C)C=C2)c2c(O)c(S(=O)(=O)[O-])cc3cc(S(=O)(=O)O)ccc23)cc1
inactive

---

Assay: qHTS assay to identify small molecule antagonists of the thyroid receptor (TR) signaling pathway - cell viability counter screen (AID 743064); further: nearly all actives have a fitted effect of over 50% in size
Settings: GH3.TRE-Luc viability, CellTiter-Fluor, 24 h; series mostly up to 70.3 µM
Inconclusive results are not listed. Calls of active or inactive are those of the source. The call rests on the fitted dose curve; in most records, active means well fitted cell-killing curve with a large enough effect in the repeat runs; inconclusive means weak or mixed curves, or effect the other way; inactive means no such curve, though single readings can be large or run the other way.
Can you answer with just one of these options? active, inactive

molecule	class name
CCCCCCCCCCCCCCCC(=O)O[C@@H]1[C@@H](O)[C@@H](O)[C@@H]([C@H](NC(=O)[C@@H]2C[C@@H](CCC)CN2C)[C@H](C)Cl)O[C@@H]1SC	inactive
CO[C@@H]1[C@@H](O[C@@H]2O[C@H](C)[C@@H](O[C@H]3C[C@@](C)(O)[C@@H](OC(=O)CC(C)C)[C@H](C)O3)[C@H](N(C)C)[C@H]2O)[C@@H](CC=O)C[C@@H](C)[C@@H](O)/C=C/C=C/C[C@@H](C)OC(=O)C[C@H]1O	inactive
CC(CN(C)C)CN1c2ccccc2Sc2ccc(C(F)(F)F)cc21 (stereo unspecified)	active
OCCO[C@@H]1[C@@H](O)[C@H](O)[C@@H](CO)O[C@@H]1O	inactive
CC1(C)C(\C=C/C=C\C=C/C=C2/N(CCCCS(=O)(=O)O)c3ccc4ccccc4c3C2(C)C)=[N+](CCCCS(=O)(=O)[O-])c2ccc3ccccc3c21	active

Kindly review the next molecule as well.
Would you mind telling me which call this test gave CO[C@@]1(NC(=O)C2SC(=C(C(N)=O)C(=O)O)S2)C(=O)N2C(C(=O)O)=C(CSc3nnnn3C)CS[C@@H]21 (stereo partly specified) ?
inactive

---

Assay: qHTS assay to test for compound auto fluorescence at 590 nm (red) in HEK293 cell free culture (AID 720683)
Settings: cell-free medium autofluorescence, Ex540/Em590 red; series mostly up to 46 µM
The source made the active and inactive calls. The call rests on the fitted dose curve; in most records, active means well fitted curve in the direction sought with a large enough effect in the repeat runs; inconclusive means weak or mixed curves; inactive means flat fitted curve, though single readings scatter.
attribute measured: outcome

Below, 6 compounds whose answers are already recorded.
compound	outcome
CC(=O)Oc1cccc(C(=O)O)c1OC(C)=O	inactive
CC[C@@H](C(=O)[C@@H](C)[C@@H](O)[C@H](C)[C@@H]1O[C@@H]([C@@H](CC)C(=O)O)CC[C@@H]1C)[C@H]1O[C@]2(C=C[C@@H](O)[C@]3(CC[C@@](C)([C@H]4CC[C@](O)(CC)[C@H](C)O4)O3)O2)[C@H](C)C[C@@H]1C	inactive
C/C1=C2N=C(/C=C3N=C(/C(C)=C4\[N-]C(C(CC(N)=O)C4(C)CCC(=O)NCC(C)OP(=O)([O-])OC4C(CO)OC(n5cnc6cc(C)c(C)cc65)C4O)C4(C)N=C1C(CCC(N)=O)C4(C)CC(N)=O)C(CCC(N)=O)C\3(C)C)C(CCC(N)=O)C/2(C)CC(N)=O.[CH3-].[Co+3] (configuration not stated)	inactive
COC(=O)[C@H]1[C@H]2C[C@@H]3c4[nH]c5cc(OC)ccc5c4CCN3C[C@H]2C[C@@H](OC(=O)/C=C/c2cc(OC)c(OC)c(OC)c2)[C@@H]1OC	inactive
C[C@@H]1C[C@H]2C3C[C@H](F)C4=CC(=O)C=CC4(C)[C@@]3(F)[C@@H](O)CC2(C)[C@@]1(O)C(=O)COC(=O)C(C)(C)C (some centres not stated)	inactive
S=C1SCN(Cc2ccccc2)CN1Cc1ccccc1	inactive

Now look at this entry.
# query: outcome of entry C[C@]12CCC(=O)C=C1CC[C@@H]1[C@@H]2[C@@H](O)C[C@@]2(C)[C@H]1CC[C@]2(O)C(=O)COP(=O)(O)O
inactive

---

Test: qHTS assay to identify small molecule antagonists of the thyroid receptor (TR) signaling pathway (AID 743065); further: nearly all actives have a fitted effect of over 55% in size
Details: GH3.TRE-Luc, T3-stimulated luciferase inhibition, 23.5 h; series mostly up to 70.3 µM
Inconclusive results are not listed. The source made the active and inactive calls. Calls follow the shape of the dose curve; as a rule, active = well fitted inhibition curve with a large enough effect in the repeat runs; inconclusive = weak or mixed curves; inactive = no such curve, though single readings can be large or run the other way. Positions of bridges follow the written chain, without caps; N, C: chain ends. Residues, ends and D or L forms follow the SMILES beside them.
Just give me one of these, please: y for active, n for inactive

These solved cases illustrate the format of a correct answer.
compound	class name
NC(=S)N=Nc1ccc(NN=C(N)N)cc1	y
CC1=C(C(=O)OCCN(Cc2ccccc2)c2ccccc2)C(c2cccc([N+](=O)[O-])c2)C(P2(=O)OCC(C)(C)CO2)=C(C)N1 (stereo not given)	y
O=P(O)(O)C(O)(Cc1cnc2ccccn12)P(=O)(O)O	n
O=C(OCc1ccccc1)c1cccnc1	n
Cc1cccc(C)c1NC(=O)NC1=CCCN1C	n

# lookup: test call for O=S(=O)(O)CCCS(=O)(=O)O
n

Per the records of this test, what outcome belongs to NCCCC[C@H](NC(=O)[C@@H]1CCCN1C(=O)[C@@H]1CSSC[C@H](NC(=O)CNC(=O)CNC(=O)CN)C(=O)N[C@@H](Cc2ccc(O)cc2)C(=O)N[C@@H](Cc2ccccc2)C(=O)N[C@@H](CCC(N)=O)C(=O)N[C@@H](CC(N)=O)C(=O)N1)C(=O)NCC(N)=O (H-GGGCYFQNCPKG-NH2; disulfide 4-9) ?
n

Which outcome was entered for the compound NCCCC[C@H](NC(=O)[C@@H]1CCCN1C(=O)[C@@H]1CSSC[C@H](N)C(=O)N[C@@H](Cc2ccccc2)C(=O)N[C@@H](Cc2ccccc2)C(=O)N[C@@H](CCC(N)=O)C(=O)N[C@@H](CC(N)=O)C(=O)N1)C(=O)NCC(N)=O in this test?
n

Assay outcome for O=C1CCC(=O)N1CO : what was it?
n

Hello, I am checking results. What call was entered for CCCCCCCCCCCCCC[n+]1ccc(C)cc1 ?
y

Which outcome did this test record for the compound O=C(O[C@H]1CN2CCC1CC2)N1CCc2ccccc2[C@@H]1c1ccccc1 ?
y
